system: SNB-75 CNS; test: NCI tumour cell line growth inhibition, 48 h
# TGI listing for each entry below

# compound, TGI
records = [
    ("CC(C)(C)[Si](C)(C)OCC1OC(n2cnc3c(N)ncnc32)CC1O (configuration not stated)", "> 100 µM"),
    ("COC(=O)C(Cc1ccccc1)NP(=O)(O)OCC1OC(n2cc(Br)c(=O)[nH]c2=O)CC1O (configuration not stated)", "> 100 µM"),
    ("Cc1cc2c(cc1Cl)SC(NNC(=O)c1ccco1)=NS2(=O)=O", "> 10 µM"),
    ("COc1ccc(CCCCl)c(C2=NCCc3cc(OC)c(OC)cc32)c1", "> 100 µM"),
    ("CCN(Cc1ccc(Cl)cc1)c1ccc(CO)c(Cl)c1", "17.6 µM"),
    ("CCOC(=O)N1CCN(/[N+]([O-])=N/Oc2ccc([N+](=O)[O-])cc2[N+](=O)[O-])CC1", "18.8 µM"),
    ("CC(CC[C@@H](O)C(C)(C)O)C1[C@@H](O)CC2(C)C3CC(O)C4C(C)(C)[C@@H](OC5OC(CO)C(O)C(O)C5O)CC[C@@]45C[C@@]35CC[C@]12C (some centres not stated)", "> 10 µM"),
]

====

tested on: OVCAR-5 ovarian; experiment: NCI tumour cell line growth inhibition, 48 h
property.name: TGI

# compound, property.name, result
records = [
    ("COC(=O)C(Cc1ccccc1)NP(=O)(O)OCC1OC(n2cc(Br)c(=O)[nH]c2=O)CC1O (stereo not given)", "TGI", "> 100 µM"),
    ("CS(=O)(=O)OC1CCC2(C#N)CCC1C2=O (stereo not given)", "TGI", "> 100 µM"),
    ("O=C(COc1ccc(Cl)cc1)N1N=C(c2ccc(Cl)cc2)CC1(O)c1ccccc1 (stereo not given)", "TGI", "45.3 µM"),
    ("O=C1C(N2CCN(c3ccccn3)CC2)=C(Cl)C(=O)c2ncccc21", "TGI", "> 10 µM"),
    ("C/C(=N\\NC(=S)N1CC2CCC(CC2)C1)c1nccs1", "TGI", "15.8 µM"),
    ("CCc1cc2c(c3c1CCC3=O)CC1(Cc3ccc(C)cc3C1)C2 (stereo not given)", "TGI", "> 100 µM"),
    ("Cc1ccc2c(c1)C(=O)N(N(C)C)CC(=O)N2", "TGI", "> 100 µM"),
    ("CCOC(=O)c1cc(=O)c2ccnc3c2n1CCS3", "TGI", "> 100 µM"),
    ("COc1ccc([C@H]2CC(=O)C[C@H](c3ccc(OC)cc3)C23C(=O)c2ccccc2C3=O)cc1", "TGI", "> 100 µM"),
    ("N=C1C(c2nc3ccccc3s2)=C(O)CN1c1ccc(F)c(Cl)c1", "TGI", "> 100 µM"),
    ("CCc1ccccc1NC(=O)C1=C(C)NC(C)=C(C(=O)Nc2ccccc2CC)C1c1ccccc1Cl", "TGI", "> 100 µM"),
    ("COc1ccc(CCCCl)c(C2=NCCc3cc(OC)c(OC)cc32)c1", "TGI", "> 100 µM"),
    ("COc1ccc2[nH]cc(-c3ccc(-c4c[nH]c5ccc(OC)cc45)s3)c2c1", "TGI", "18.7 µM"),
    ("C[C@]12CC[C@@H]3c4ccc(O)cc4CC[C@H]3[C@@H]1CC[C@@H]2OP(=O)(O)O", "TGI", "> 100 µM"),
    ("CCOC(=O)c1nn2c(nc1=O)sc1ccc3ccccc3c12", "TGI", "> 100 µM"),
    ("CCN1CCC(O)(c2ccc(Oc3ccccc3)cc2)C(C(=O)c2ccc(Oc3ccccc3)cc2)C1 (stereo not given)", "TGI", "31.3 µM"),
    ("O=c1c2ccccc2nc(-c2cc3c(cc2Cl)Sc2nccn2S3(=O)=O)n1-c1ccccc1", "TGI", "> 100 µM"),
    ("CC1(C)CC(C2=NCCO2)CC(C)(C)N1", "TGI", "> 100 µM"),
    ("O=c1[nH]nnc2c1ncn2C1OC(CO)C(O)C1O (stereo not given)", "TGI", "> 100 µM"),
    ("Cc1ccc2nc3c(=O)[nH]c(=O)nc-3n(C)c2c1C", "TGI", "> 100 µM"),
    ("COc1cc(C=O)cc(/C=N/n2c3ccccc3c3ccccc32)c1O", "TGI", "> 100 µM"),
    ("NCCCOc1ccc([N+](=O)[O-])cc1Cl", "TGI", "> 100 µM"),
    ("Cc1ccc(C2=Nn3c(nc4sc(C)c(C)c4c3=O)SC2)cc1", "TGI", "> 100 µM"),
    ("O=c1[nH]nc(-c2ccccc2)n1Nc1ccccc1", "TGI", "> 100 µM"),
    ("Cc1c(C)c(C)c(-n2c(=O)n(C)c(=O)n2-n2c(=O)n(C)c(=O)n2-c2c(C)c(C)c(C)c(C)c2C)c(C)c1C", "TGI", "> 100 µM"),
    ("N#CC(C#N)=C1c2ccccc2C(=NN)c2ccccc21", "TGI", "> 100 µM"),
    ("Cc1cc(CC(=O)NCCO)n(CCO)c(=O)c1", "TGI", "> 100 µM"),
    ("Cc1ccc([N+](=O)[O-])cc1S(=O)(=O)Nc1ccc(C2=NOC(c3ccco3)C2)cc1 (stereo not given)", "TGI", "52.2 µM"),
    ("O=C(O)CN(CC(=O)O)Cc1cc(C#Cc2ccc(C#Cc3ccccc3)cc2)cc(CN(CC(=O)O)CC(=O)O)n1", "TGI", "> 81.6 µM"),
    ("CC1(C)C2CCC13C(=O)C1OC3(C2)C2C(=O)c3cc4ccccc4cc3C(=O)C12 (stereo not given)", "TGI", "> 100 µM"),
    ("CCN(CC)c1c(C(=O)/C=C/c2ccc(Cl)cc2)c(-c2ccccc2)nn(C)c1=O", "TGI", "3.23 µM"),
    ("O=S1(=O)OCCOS(=O)(=O)C1S(=O)(=O)c1ccc2ccccc2c1", "TGI", "> 100 µM"),
    ("CC(C)=CC1C[C@H](C2CC=C3C2(C)CCC2[C@@]3(C)C(=O)CC3[C@]2(C)C=CC(=O)[C@]3(C)CO)CO1 (stereo not given in full)", "TGI", "37.8 µM"),
    ("Cc1cc2c(cc1C)[n+](Cc1ccc3ccccc3c1)cn2Cc1ccc2ccccc2c1", "TGI", "2.43 µM"),
    ("[N-]=[N+]=NC(CCl)c1cn([C@H]2C[C@H](O)[C@@H](CO)O2)c(=O)[nH]c1=O (stereo not given in full)", "TGI", "> 100 µM"),
    ("COc1cc(/C=C\\c2cc(OC)c(OC)c(OC)c2)cc(NC(=O)/C=C/c2cc(OC)c(OC)c(OC)c2)c1OC", "TGI", "> 100 µM"),
    ("COc1ccc(/C=C2\\NC(=S)N(/C=C3\\C(=O)Oc4ccccc4C3=O)C2=O)cc1OC", "TGI", "> 100 µM"),
    ("COc1ccc(-c2cc3c(c4cc(OC)ccc24)C(=O)OC3=O)cc1", "TGI", "> 100 µM"),
    ("CN(CCNC(=O)c1nn(-c2ccccc2)c2c1Cc1ccccc1-2)CCNC(=O)c1nn(-c2ccccc2)c2c1Cc1ccccc1-2", "TGI", "6.8 µM"),
    ("C/C=C(\\C)C(=O)NC1=CC[C@@]2(C)C(=CCC3C2CC[C@@]2(C)C3CC[C@@H]2C(C)N(C)C)C1=O (stereo not given in full)", "TGI", "25.4 µM"),
]
